# SYSTEM UNDER TEST: 11beta-hydroxylase (Bos taurus, UniProt P15150)
# Sequence (P15150 25-503): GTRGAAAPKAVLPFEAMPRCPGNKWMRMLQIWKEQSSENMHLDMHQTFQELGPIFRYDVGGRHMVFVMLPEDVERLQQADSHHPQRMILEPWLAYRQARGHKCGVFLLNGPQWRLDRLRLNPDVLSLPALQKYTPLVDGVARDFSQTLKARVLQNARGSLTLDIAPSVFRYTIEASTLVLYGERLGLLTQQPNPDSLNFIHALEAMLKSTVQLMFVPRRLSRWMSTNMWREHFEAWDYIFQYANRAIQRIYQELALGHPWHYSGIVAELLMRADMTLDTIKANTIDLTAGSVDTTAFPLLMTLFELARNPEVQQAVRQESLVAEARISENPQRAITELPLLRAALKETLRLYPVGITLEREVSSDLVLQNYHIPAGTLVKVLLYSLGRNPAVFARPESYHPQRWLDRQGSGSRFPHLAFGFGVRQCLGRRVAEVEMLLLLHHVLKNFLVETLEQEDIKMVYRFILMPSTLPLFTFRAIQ
ASSAY ENDPOINT: IC50 (nM)

[1] CCCC(c1ccc(C#N)cc1)n1ccnc1 (centres unmarked) [Compound 1, 4-[1-(1-imidazolyl)-butyl]-benzonitrile, reference compound]
[2] CCCCCC(=O)c1ccc(C(CCC)n2ccnc2)cc1 (centres unmarked)
## Task Identify the entry with the larger IC50. Options: 1 and 2 Mark your answer with the label of the selected entry.
## Result 2

###

# SYSTEM UNDER TEST: aromatase (Homo sapiens)
# Sequence (P11511 whole entry): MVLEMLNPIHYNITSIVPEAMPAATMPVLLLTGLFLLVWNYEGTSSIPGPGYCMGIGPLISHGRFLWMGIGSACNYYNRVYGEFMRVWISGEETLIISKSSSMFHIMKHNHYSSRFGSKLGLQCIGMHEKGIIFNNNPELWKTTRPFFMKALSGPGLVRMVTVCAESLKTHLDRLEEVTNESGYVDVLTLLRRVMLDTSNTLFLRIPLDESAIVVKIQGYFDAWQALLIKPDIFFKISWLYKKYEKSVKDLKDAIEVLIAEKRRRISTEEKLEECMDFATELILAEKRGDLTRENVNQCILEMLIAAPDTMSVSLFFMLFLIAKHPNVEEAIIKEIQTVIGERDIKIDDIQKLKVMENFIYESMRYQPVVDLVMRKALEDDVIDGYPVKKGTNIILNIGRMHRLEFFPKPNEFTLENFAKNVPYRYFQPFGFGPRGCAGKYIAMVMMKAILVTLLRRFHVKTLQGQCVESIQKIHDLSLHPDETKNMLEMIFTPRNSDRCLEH
ASSAY ENDPOINT: pKi
Please note pKi is a logarithmic value: minus log10 of concentration in mol/L. Answer with that number alone.

aromatase (Homo sapiens) pKi of CCCC(c1ccc(C#N)cc1)n1ccnc1 (stereo not shown) [Compound 1, 4-[1-(1-imidazolyl)-butyl]-benzonitrile, reference compound] is 8.96
